The reader will find reported pIC50 values listed item by item below.
# System: RS4; 11 with G101V mutation
# method-summary: In vitro anti-proliferation assay (ATPlite luminescence) in BCL-2-dependent ALL cell line RS4;11 with G101V mutation
# Assay type: cell-based
# assay-context: cellular anti-proliferative IC50, about 72 hours, medium with 10% FBS, ATPlite; read-out: RS411-G101V IC50
Lab note: report pIC50 as minus log10 of the concentration in molar units, number only.

If you can, please state the reported pIC50 value of CC(C)Oc1ccccc1[C@H]1CN(Cc2ccc3c(c2)OCCO3)CCN1C1CC2(CCN(c3ccc(C(=O)NS(=O)(=O)c4ccc(NCC5CCC(C)(O)CC5)c([N+](=O)[O-])c4)c(N4c5cc6cc[nH]c6nc5O[C@H]5COCC[C@@H]54)c3)CC2)C1 (some centres unmarked) .
7.55

---

# Test system: RS4; 11 with G101V mutation
# method-summary: In vitro anti-proliferation assay (ATPlite luminescence) in BCL-2-dependent ALL cell line RS4;11 with G101V mutation
# Format: cell-based
# assay-context: cellular anti-proliferative IC50, about 72 hours, medium with 10% FBS, ATPlite; read-out: RS411-G101V IC50
Counter-ions that a name gives are not always drawn.
We begin with a simple list: items and their reported pIC50.
# log scale: pIC50 equals minus log10 of the concentration in mol/L

Worked examples, 3 molecules total:
Cc1ccccc1[C@@H]1CN(Cc2ccnc3c2OCC(C)(C)O3)CCN1C1CC2(CCN(c3ccc(C(=O)NS(=O)(=O)c4ccc(NCC5CCC(C)(O)CC5)c([N+](=O)[O-])c4)c(N4c5cc6cc[nH]c6nc5O[C@H]5COCC[C@@H]54)c3)CC2)C1 (stereo partly shown) = 8.20
COc1nc(CN2CCN(C3CC4(CCN(c5ccc(C(=O)NS(=O)(=O)c6ccc(NCC7CCC(C)(O)CC7)c([N+](=O)[O-])c6)c(N6c7cc8cc[nH]c8nc7O[C@H]7COCC[C@@H]76)c5)CC4)C3)[C@@H](c3ccccc3OC(C)C)C2)cc2c1OCCC2(C)C (stereo partly shown) [Example 110, hydrochloride] = 7.62
CC(C)Oc1ccccc1[C@@H]1CN(Cc2ccc(F)c(F)c2)CCN1C1CC2(CCN(c3ncc(C(=O)NS(=O)(=O)c4cc5c(c([N+](=O)[O-])c4)N[C@H](C4CCOCC4)CO5)c(N4c5cc6cc[nH]c6nc5O[C@H]5COCC[C@@H]54)c3F)CC2)C1 = 6.69

Alright, here's another molecule for you.
Which pIC50 value is on record for COc1cc(CN2CCN(C3CC4(CCN(c5ccc(C(=O)NS(=O)(=O)c6ccc(NCC7CCC(C)(O)CC7)c([N+](=O)[O-])c6)c(N6c7cc8cc[nH]c8nc7O[C@H]7COCC[C@@H]76)c5)CC4)C3)[C@@H](c3ccccc3OC(C)C)C2)cnc1N1CCOC[C@H]1C (stereo partly shown) ?
7.97

---

Listed next: entries and their corresponding pIC50.
# Tested on: RS4; 11 with G101V mutation
# method-summary: In vitro anti-proliferation assay (ATPlite luminescence) in BCL-2-dependent ALL cell line RS4;11 with G101V mutation
# Assay type: cell-based
# assay-context: cellular anti-proliferative IC50, about 72 hours, medium with 10% FBS, ATPlite; read-out: RS411-G101V IC50
Value format note: pIC50 is -log10 of concentration (mol/L); just state the number.

Requested field: pIC50. Item: COc1ccc(CN2CCN(C3CC4(CCN(c5ccc(C(=O)NS(=O)(=O)c6ccc(NC[C@H]7CC[C@](C)(O)CC7)c([N+](=O)[O-])c6)c(N6c7cc8cc[nH]c8nc7O[C@H]7COCC[C@@H]76)c5)CC4)C3)[C@@H](c3ccccc3OC(C)C)C2)cc1 [Example 99]
7.41

Suppose we examine the compound CC(C)Oc1ccccc1[C@H]1CN(Cc2ccc(N3CCOC[C@H]3C)c(F)c2)CCN1C1CC2(CCN(c3ccc(C(=O)NS(=O)(=O)c4ccc(NCC5CCC(C)(O)CC5)c([N+](=O)[O-])c4)c(N4c5cc6cc[nH]c6nc5O[C@H]5COCC[C@@H]54)c3)CC2)C1 (some centres unmarked) [Example 153] ; what pIC50 value has been reported?
7.33
